- Tested on: Plasmodium falciparum
- test-protocol: […] against Plasmodium falciparum strains K39 and V1/S
- Type: functional
Mark not fulfilled for Ratio values under 1, and fulfilled for everything at or above.

molecule=COc1cc2c[n+](C)c3c4cc(OC)c(OC)cc4ccc3c2cc1OC.CS(=O)(=O)[O-] study_target="Plasmodium falciparum" discrete_label=fulfilled
molecule=CCOc1cc2c3cc(OC)c(OC)cc3c[n+](CC)c2c2cc(OC)c(OC)cc12.[I-] study_target="Plasmodium falciparum" discrete_label=fulfilled
molecule="COc1cc2c[n+](C)c3c4cc(OC)c(OC)cc4c(OCC4OCC(Br)([N+](=O)[O-])CO4)cc3c2cc1OC.CS(=O)(=O)[O-] (stereo not given)" study_target="Plasmodium falciparum" discrete_label=fulfilled

In plain terms: is recorded Ratio at least 1 for CC[n+]1cc2cc(OC)c(OC)cc2c2ccc3cc(OC)c(OC)cc3c21.[I-] ?
fulfilled

In plain terms: is recorded Ratio at least 1 for CCOc1cc2ccc3c4cc(OC)c(OC)cc4c[n+](C)c3c2cc1OC.CS(=O)(=O)[O-] ?
not fulfilled
